tested on: Rh18 complex spheroid viability, percent test/control; assay: Anticancer human tumor Rh18 cell line growth inhibition [Asc]; conditions: second compound 0.949 µM; first compound 0.1 µM; active = viability on the fitted dose curve at most 10% of control; inactive = the rest;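 also: spheroids exposed to compound for 7 days; 100% = DMSO vehicle control wells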
I would appreciate it if you answered using one of these outcomes: yes (1) (active), no (0) (inactive)

Here are 2 compounds together with their reported answers.
compound	discreteLabel
CCN1CCN(Cc2ccc(Nc3ncc(F)c(-c4cc(F)c5nc(C)n(C(C)C)c5c4)n3)nc2)CC1 + CCN1C(C(=O)NC23CCC(C(=O)O)(CC2)CC3)C(c2cccc(Cl)c2F)C2(C(=O)Nc3cc(Cl)ccc32)C12CCCCC2	no (0)
COc1c(OCCCN2CCOCC2)ccc2c3n(c(=NC(=O)c4cnc(N)nc4)nc12)CCN3 + CCN1C(C(=O)NC23CCC(C(=O)O)(CC2)CC3)C(c2cccc(Cl)c2F)C2(C(=O)Nc3cc(Cl)ccc32)C12CCCCC2	yes (1)

# input For C=C(F)C(=O)N1CCN(c2nc(OCC3CCCN3C)nc3c2CCN(c2cccc4cccc(Cl)c24)C3)CC1CC#N (stereo unspecified) + CCN1C(C(=O)NC23CCC(C(=O)O)(CC2)CC3)C(c2cccc(Cl)c2F)C2(C(=O)Nc3cc(Cl)ccc32)C12CCCCC2 , what call appears in the results of this test?
# output yes (1)

# input Another compound to check: NC1CCC(NC2CC2c2ccccc2)CC1 (stereo unspecified) + CCN1C(C(=O)NC23CCC(C(=O)O)(CC2)CC3)C(c2cccc(Cl)c2F)C2(C(=O)Nc3cc(Cl)ccc32)C12CCCCC2
# output no (0)

# input Another compound to check: C#Cc1c(F)ccc2cc(O)cc(-c3ncc4c(N5CC6CCC(C5)N6)nc(OCC56CCCN5CC(F)C6)nc4c3F)c12 (stereo unspecified) + CCN1C(C(=O)NC23CCC(C(=O)O)(CC2)CC3)C(c2cccc(Cl)c2F)C2(C(=O)Nc3cc(Cl)ccc32)C12CCCCC2
# output no (0)

# input Another compound to check: Cn1ncnc1[C@H]1c2n[nH]c(=O)c3cc(F)cc(c23)N[C@@H]1c1ccc(F)cc1 + CCN1C(C(=O)NC23CCC(C(=O)O)(CC2)CC3)C(c2cccc(Cl)c2F)C2(C(=O)Nc3cc(Cl)ccc32)C12CCCCC2
# output no (0)

----------
tested on: Rh18 complex spheroid viability, percent test/control; test: Anticancer human tumor Rh18 cell line growth inhibition [Asc]; conditions: second compound 0.316 µM; first compound 0.00316 µM; active = viability on the fitted dose curve at most 10% of control; inactive = the rest;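 also: spheroids exposed to compound for 7 days; 100% = DMSO vehicle control wells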
I would appreciate it if you answered using one of these outcomes: active, inactive

molecule	discreteLabel
Cn1ncnc1[C@H]1c2n[nH]c(=O)c3cc(F)cc(c23)N[C@@H]1c1ccc(F)cc1 + Cc1c(S(C)(=O)=O)c(-c2cc(F)cc(N3CCN(c4ccc(NS(=O)(=O)c5ccc(NC(CCN6CCC(C(=O)OCCCP(=O)(O)O)CC6)CSc6ccccc6)c(S(=O)(=O)C(F)(F)F)c5)cc4)CC3)c2)c(-c2ccc(Cl)cc2)n1C(C)C	inactive
NC1CCC(NC2CC2c2ccccc2)CC1 (centres undefined) + Cc1c(S(C)(=O)=O)c(-c2cc(F)cc(N3CCN(c4ccc(NS(=O)(=O)c5ccc(NC(CCN6CCC(C(=O)OCCCP(=O)(O)O)CC6)CSc6ccccc6)c(S(=O)(=O)C(F)(F)F)c5)cc4)CC3)c2)c(-c2ccc(Cl)cc2)n1C(C)C	active
NC1CCC(NC2CC2c2ccccc2)CC1 (centres undefined) + CNC(C)C(=O)NC1CN(S(=O)(=O)c2cccc(S(=O)(=O)N3CCC4CCC(C(=O)NC(c5ccccc5)c5ccccc5)N4C(=O)C(NC(=O)C(C)NC)C3)c2)CCC2CCC(C(=O)NC(c3ccccc3)c3ccccc3)N2C1=O	inactive

Could you now look at the following molecule, please?
# input For CCN1CCN(Cc2ccc(Nc3ncc(F)c(-c4cc(F)c5nc(C)n(C(C)C)c5c4)n3)nc2)CC1 + CNC(C)C(=O)NC1CN(S(=O)(=O)c2cccc(S(=O)(=O)N3CCC4CCC(C(=O)NC(c5ccccc5)c5ccccc5)N4C(=O)C(NC(=O)C(C)NC)C3)c2)CCC2CCC(C(=O)NC(c3ccccc3)c3ccccc3)N2C1=O , what call appears in the results of this test?
# output inactive

Data credit: PubChem BioAssay AID1963431
